# protocol summary: soluble fraction after stress (log2 fold change); higher = more stays soluble; pooled small domains, quantitative proteomics
# condition parameters: stress: pH 4
Reported values of soluble fraction (log2) for individual entries
measurement label: soluble fraction (log2)

> print(dat)
                           primary.sequence        measurement.label  result
1  HMSAETRSWTDAQGNQTQAVLRGFDGGDVLLQNAAGKTLRVPVKNLSEDDQRYVVLNISTLID  soluble fraction (log2)  -0.594
2  HMSQIDLQIGHKIKSKRRKLGISQADMAKKLYISPSYLNLIESGKRKINVDLLLKLSNELGIEMSDIS  soluble fraction (log2)    0.33
3  HMAFGTGTVTASSLRVREDASTSAATLDTLSKGSKVSVLADEQDGFYKVQIGEQVGYMSAEYLDVTE  soluble fraction (log2)  -0.269
4  HMTDGYAMRLERLNSLEEYVLNKGTVSLEDLAERFGVSINTIRRDLNELISRGQIKKVYGGVSSLHD  soluble fraction (log2)  -0.245

* * *

# protocol summary: soluble fraction after stress (log2 fold change); higher = more stays soluble; pooled small domains, quantitative proteomics
# condition parameters: stress: pH 4
Please enter rule met where soluble fraction (log2) is greater than or equal to -1, and rule not met where it is lower.

> print(dat)
                           primary.sequence         group
1  HMINDPSALGQRAFVDELLWMAGYVPEKIEIYQTLPNNSRVYRVKLDSVNGGFIFIRWDKKKKEHYV      rule met
2  HMHDYNTIVGVIEMRDKNIPLTSIRQRYGIGYSGIDLILTRYKDSGLTLKEFLALDPSQAEELIYPPK      rule met
3  HMNQSAVMAERMKQTKNRILQTAKEIFLEQGYKRTTIRQIVERSGITSGSIYNIFSSKEEIFSALVDDL  rule not met
4  HMQPLGHDLTERELDVLALMVTGMNNSEIADKLVVSRSTIKYHVSNILSKLQATSRTEAVAYALQQNLVH  rule not met
5  HMRLLAESIARGLDPEGSGGLWAKEAGAEALKLMETLAAEAPHGGSFTAAAYRDLFESLVHQGEVREA      rule met
6  HMTATSKKAAWDEVNKIFPTDYERSAAESERAGYAIFRSTAEGVNAWISDLGDRLEINLPDGKTVNIWIEE      rule met
7  HMGFSDDEHNALADADLKKALEVTTNKSETQYNIAKLIYSYIISLGDKKPYGDWSYDKALSIIHDA      rule met

* * *

# protocol summary: soluble fraction after stress (log2 fold change); higher = more stays soluble; pooled small domains, quantitative proteomics
# condition parameters: stress: pH 4
measurement label: soluble fraction (log2)

> print(dat)
                            primary.sequence  censoring.operator  quantitative.readout
 1  HMTKTEFLNLLEQRLFVLNDNERADLLSEYKQHIEMKIQSGLSEEEAIADFGDPEELIKELLEAY                   =                 -1.13
 2  HMSLSDADVERLLEVAIDIESLEEREGLYYQANESEPYSGWGKLMYDSGQVERLVPYKDGRWEGLWTIW                   =                 -1.18
 3  HMFNDGEIAIYTDPRGDAGETQIWKRGKGYYGQNDSFDFEAKDKKELEMKLKRWGYVLIAGSIDE                   =               -0.0774
 4  HMSQDTLIENGKVFLIHKVVAGQTLYGLSKAYNITIEDIIKYNPQAENGIKIGEDIKIFLKEE                   =                  -1.1
 5  HMNSEELFLRRIAQELIDQHGKDLHRIIVVLPSNRSKVFLKKFLFEILGSAFLTPQLMLLPQFVKSIV                   =                 -0.34
 6  HMIPDLPAVGVNVHKERRRQQLSLDALAAGSGVSKAMLSQIESGKVNPTVATMWKIAHALGVDFELLLKGE                   =              -0.00451
 7  HMEVFGDTKEEQMIIDILKLGITDLEHLQAKSMLEPAIFSQTLTMLEISGKIRPLGAGHWTL                   =                 -1.49
 8  HMPRPFPELTTREHDILALIARGWSNGRIADHLSLSGKTVSNYVSNILGKLQVTARAEAAERAREAGMGQ                   =                -0.401
 9  HMVEPDELTEREREVLQFVARGLSNKEIGAALALSPHTIKAHLRSILDKLHLRSRAEAAAWAVRSGLS                   =                -0.162
10  HMEDEAVMQLPLSELKGLSPELLAILNGAGYEKLKDVLDLEREDIERIPGMTPERNEQLVAFLAELTE                   =                 -1.98
11  HMYELDIYPNPAIDKINVLLPSSTTLPVKVEIYDIMGKKVNSLLTTKKAFTIETDQFEKGIYFVKA                   =                 0.187
12  HMGKASNEVYEVISSKIRTGEWAPGYKLPSEPTLAEEFGVSRATVREALQELISRGRIKREQGRGTYVLH                   =                -0.118
13  HMKQMNETQQKAFEIYLDSATFETDYKPISEEQLAAKLDALGLKGSSSSINRWKKDFNWAQALQNKVTLAM                   =                -0.227
14  HMSETEWGEIYRKVMAAGLIPARSVRERLLALPSIEPLLQAAEAAGSKGMLDETLLDSLLSKT                   =                -0.539
15  HMQGNGKVATELLKDIIASDNLYINAMRMLVMHYNSKGTNQVEMVKLLHNILDLVPDDEYANEILKSAKKA                   =                -0.637
16  HMPVSLHEQIQQARIRAEQNVEGISLLLQVNPKYYEQIEAGDVIPDQDLLKRISSLFGWNYHEMLHREKSS                   =                -0.487
17  HMPASTSIPYSDFISRVESGDVQEAKIGESAITGTYKDGSQFKTVKPPTLDTNLMPTLIQNKVNVVGVEP                   =                0.0215
18  HMKNEYAMVIQVNGKLRGNMLVSADLEQKDIERMALDNEDIKRFISHENDVKKMIFVPKKLINIVT                   ≥                  0.43
19  HMDNVQLRNFAIKATEASIIYLDQEQRNFFWYNNNKKLMTVPFDENPYSAFAAYLKTDEGSEVYKAIEKKF                   =                -0.504
20  HMAQTSAELIIEYLKRNDGFMELTDKSPADEIYETFGISKKNFKMAVGSLYKNRVIEIGQNGIRLVE                   =               -0.0445
21  HMQIDDSVELSAIVEKLLAANPEQVEQLKNGKTKVLGYFVGLAMKETQGRANPQKVNELIQTHL                   =                -0.308
22  HMALDLPVKRVKGKEYYYYKVKKGESLYGISKHLGLPLDSIVKSNPSVADGVRKGDMLLFPLEEYT                   =                 0.115
23  HMVKNYYEILEVDKKASPEVIEKAYKTLAKKYHPDLQEAENNGQYEEKMKEINEAYSVLSDEFKRRTYDEQ                   =                 0.103
24  HMSYQADEIKEKLIDILQNQKTGLSGLEISERIGINRITMTKYLQVFAAEGFIKQKNIGNVIIWFIEDGTE                   =                  -0.8
25  HMQISGIHLYERRITKDDEWAERKLSEISLAGSLVILILRNEHVVIPNGETVLKENDLLYISD                   =                 -1.38
26  HMKDGMRVYITYHDSEEEPEKPIGDGTTKGWHTNSTASVVWISQKVAESADLGIWGDPIRIKGEA                   =                -0.217
27  HMFDTVFIVRKTSDKPLDGLRTYLNSIGDSLVIGEDDEAFKVHVHTNHPGKVLEEAITYGALQTVKIENMR                   =                -0.585
28  HMAIGSRLKVTTDATNLNIRSTPSTEGDIVGKAAHHEIVTLVEKTDDSWWKIKTNDGEEGYAYAQYLSPV                   =                0.0608
29  HMSREEFLAGLEEALAGEVPASVIRENLNYYNSYISQEMAKGRTVDEIVDEIGEPRIVARTIIDSSEAAGE                   =                -0.246
30  HMIDNFFTIRFNYSKINEVIRLLKEFNGEIFNKNYDKNEYIIEFSIPKKDAALLISKLKNITGLTIEQ                   =                -0.538
31  HMRGETSYANDIIKRLKQANLIVVEGTLYPLLNRLKKDGLLHYEWRESQQGPPRKYYGLTEEGEA                   =                0.0328
32  HMDFTHFTLKQDGKFAGSSNLLHQAVIAAARLAAETGKPVTVMAHVRGGGTRKAVFNPDGTNDKIWN                   =               -0.0338
33  HMSSIYVYPNPTANRIYIQADNIKKAELFDLMGRKVRSTNQPQIDISRLSRGNYILQVKTQNNTQSFKIIK                   =                0.0347
